- System: SF-295
- PROTOCOL_SUMMARY: NCI tumour cell line growth inhibition, 48 h
Calls of active or inactive are those of the source. Cut-off read from the data, not from the text of the source: active = GI50 up to about 1.1 µM and inactive = higher.
Hello, when you answer, please use one of the following outcomes: 1 (active), -1 (inactive)

Worked set:
INSERT INTO assay_data (compound, label_class) VALUES
  ('CNc1ncnc2c1cnn2COCC(O)CO (stereo not given)', -1),
  ('CC1C(c2ccc(F)cc2)c2cc3c(cc2OC1N1CCCC1)OCO3 (stereo not given)', -1),
  ('CC/C(Cl)=N\OC(=O)Nc1ccc(C#N)cc1', -1),
  ('O=c1[nH]c(=O)n(C2CC(O)C(CO)O2)c2nc3cc4ccccc4cc3nc12 (stereo not given)', -1),
  ('Fc1cc(-c2ncc(Cl)cc2Cl)c2cccccc1-2', -1),
  ('CCCC1N2CCCCC2[C@@H]2c3[nH]c4ccccc4c3CCN12 (stereo not given in full)', -1);

Please let me know the test result on file for COc1ccc(-c2c3c(n(C4OC(CO)C(O)C(O)C4O)c(=S)c2C#N)CC(C)(C)CC3=O)cc1 (stereo not given) .
-1

Please let me know the test result on file for O=C1c2cc3ccccc3cc2C2(c3ccc(Cl)cc3)NCCN12 (stereo not given) .
-1

----------
molecules and their reported GI50
- Test system: UO-31
- PROTOCOL_SUMMARY: NCI tumour cell line growth inhibition, 48 h
Activity calls are given as the source filed them. Rule as the data show it: active = GI50 up to about 1.1 µM and inactive = higher.

// below: answered molecules
INSERT INTO measurements (molecule, target_desc, observed_property, result) VALUES
  ('COc1cc2ccc3c4ccccc4cnc3c2cc1OC', 'UO-31', 'GI50', '> 100 µM (inactive)'),
  ('C=C(Cl)C(Cl)(CBr)CCCC(C)C (stereo not given)', 'UO-31', 'GI50', '16.3 µM (inactive)'),
  ('NN1C(=O)C(CCO)S/C1=N/N=C1/SC(CCO)C(=O)N1N (stereo not given)', 'UO-31', 'GI50', '> 100 µM (inactive)'),
  ('O=C(CN(Cc1ccccc1)Cc1ccccc1)N1CCc2c([nH]c3ccccc23)C1c1cccnc1 (stereo not given)', 'UO-31', 'GI50', '2.63 µM (inactive)');

Continue with the next molecule.
What does the data say about its GI50? Entry: Cn1c(-c2cccs2)cc(-c2cccs2)c1-c1ccco1
31.5 µM (inactive)

----------
- Test system: NCI-H23
- PROTOCOL_SUMMARY: NCI tumour cell line growth inhibition, 48 h
Active and inactive are the calls of the source. No stated cut-off is given here; in the data, active = GI50 up to about 1.1 µM and inactive = higher.
OBSERVED_PROPERTY: GI50

// below: answered compounds
INSERT INTO results (compound, observed_property, result) VALUES
  ('c1ccc(SC2(Sc3ccccc3)CCCC2)cc1', 'GI50', '> 100 µM (inactive)'),
  ('CCOC(=O)P(=O)(O)c1ccc(N(C)Cc2ccccc2)cc1', 'GI50', '> 100 µM (inactive)'),
  ('CCOC(=O)C1C/C(C)=C(/C)SCCCS1 (stereo unspecified)', 'GI50', '80 µM (inactive)'),
  ('O=C(N/N=C/c1cc(Br)ccc1O)N/N=C/c1cc(Br)ccc1O', 'GI50', '2.31 µM (inactive)'),
  ('O=C1c2ccccc2C(=O)c2c1ccc1c2OCO1', 'GI50', '> 100 µM (inactive)'),
  ('O=C(OCC1CCCN2CCCCC12)c1ccncc1 (stereo unspecified)', 'GI50', '> 100 µM (inactive)'),
  ('N#Cc1cc([N+](=O)[O-])ccc1NC(=O)C(=O)C(C(=O)/C=C/c1ccccc1)C1OC(=O)c2ccccc21 (stereo unspecified)', 'GI50', '> 100 µM (inactive)'),
  ('CC(=O)C1(c2ccccc2)CCN(Cn2sc3nc(C)cc(C)c3c2=O)CC1', 'GI50', '19.1 µM (inactive)');

What does the data say about its GI50? Entry: Cc1ccc(S(=O)(=O)N/N=C(\CCN2CCCC2)CC(c2ccccc2)c2c(O)c3ccccc3oc2=O)cc1 (stereo unspecified)
> 100 µM (inactive)

What does the data say about its GI50? Entry: Cc1ccc2c(O)cc(-c3ccc(C)s3)nc2n1
0.277 µM (active)

What does the data say about its GI50? Entry: c1ccc(C(=NNc2nc3ccccc3[nH]2)c2ccccn2)nc1
0.24 µM (active)

----------
compounds and their reported GI50
- System: A549
- PROTOCOL_SUMMARY: NCI tumour cell line growth inhibition, 48 h
Calls of active or inactive are those of the source. Cut-off read from the data, not from the text of the source: active = GI50 up to about 1.1 µM and inactive = higher.

// below: answered compounds
INSERT INTO measurements (compound, target_desc, result) VALUES
  ('O=[N+]([O-])c1cccc([N+](=O)[O-])c1Cl', 'A549', '14.9 µM (inactive)'),
  ('N#CC(C(=O)C(N)=O)c1ccccc1Cl (stereo not drawn)', 'A549', '> 100 µM (inactive)'),
  ('Cc1ccc2nc(CC(=O)c3ccc4ccccc4c3)c(O)nc2c1', 'A549', '> 100 µM (inactive)');

What does the data say about its GI50? Entry: O=C1NN(c2ccccc2)C(=O)C2C3c4ccccc4C(c4ccccc43)C12 (stereo not drawn)
> 100 µM (inactive)

What does the data say about its GI50? Entry: O=C(NCCCCCCNC(=O)c1cc(-c2ccccc2)nc2ccccc12)c1cc(-c2ccccc2)nc2ccccc12
> 100 µM (inactive)

What does the data say about its GI50? Entry: CC(C)N1CSC(=S)N(Cc2ccccc2)C1
> 10 µM (inactive)

What does the data say about its GI50? Entry: CC(=O)[C@@H]1C/C(=C\OCc2ccccc2)O[C@H]1C
> 100 µM (inactive)

What does the data say about its GI50? Entry: BrCCCCCOc1ccc(-c2c3ccccc3c(-c3ccc(OCCCCCBr)cc3)c3ccccc23)cc1
> 100 µM (inactive)

----------
- Test system: KM12
- PROTOCOL_SUMMARY: NCI tumour cell line growth inhibition, 48 h
Active and inactive are the calls of the source. Rule as the data show it: active = GI50 up to about 1.1 µM and inactive = higher.
OBSERVED_PROPERTY: GI50

INSERT INTO assay_data (compound, result) VALUES
  ('CC(=O)[C@@H]1C/C(=C\OCc2ccccc2)O[C@H]1C', '> 100 µM (inactive)'),
  ('COc1ccc(/C=N\N2C(=O)Cc3ccccc32)cc1', '> 100 µM (inactive)'),
  ('NN1C(=O)C(CCO)S/C1=N/N=C1/SC(CCO)C(=O)N1N (configuration not stated)', '> 100 µM (inactive)'),
  ('[N-]=[N+]=CC(=O)OC1CCOCC1', '> 100 µM (inactive)'),
  ('CCOc1ccc(N2C(=O)NC3(c4ccccc4)N(C)C(=O)N(C)C23c2ccccc2)cc1 (configuration not stated)', '55.3 µM (inactive)');

// map C/C(=N/NC(=O)C[N+](C)(C)C)C(CN(C)C)C(=O)Nc1ccccc1 (configuration not stated) to recorded GI50 (system: KM12)
> 100 µM (inactive)

// map CNc1nc2c(C)ccc3nc(N(C)C)[nH]c3c-2n1 to recorded GI50 (system: KM12)
39.4 µM (inactive)

// map CS(=O)(=O)C(=Cc1ccccc1Cl)S(C)(=O)=O to recorded GI50 (system: KM12)
> 46.5 µM (inactive)

// map OCCSCCCSCCO to recorded GI50 (system: KM12)
> 100 µM (inactive)

// map CCOC(=O)c1sc(=S)n(-c2ccc(Cl)cc2)c1-n1cc(-c2ccccc2)c(C#N)c1N to recorded GI50 (system: KM12)
> 100 µM (inactive)

// map COc1ccc(/C=C\c2cc(OC)c(O[Si](C)(C)C(C)(C)C)c(OC)c2)cc1 to recorded GI50 (system: KM12)
47.2 µM (inactive)

// map COC(=O)CC1c2ccccc2N2C(=O)Cc3c([nH]c4ccccc34)C12 (configuration not stated) to recorded GI50 (system: KM12)
> 100 µM (inactive)

// map CC(C)=NOC(=O)CNC(=O)C(Cc1ccccc1)NC(=O)C(C)NC(=O)OC(C)(C)C (configuration not stated) to recorded GI50 (system: KM12)
> 100 µM (inactive)

// map Cc1ccc2nc(CC(=O)c3ccc4ccccc4c3)c(O)nc2c1 to recorded GI50 (system: KM12)
> 100 µM (inactive)

// map C/C(=N\N(c1ccccc1)c1ccccc1)c1c(O)cc(C)oc1=O to recorded GI50 (system: KM12)
> 100 µM (inactive)

// map COc1ccc(N2C(=O)C3c4[nH]c5ccc(OCc6ccccc6)cc5c4C4CCC(c5ccccc5)CC4C3C2=O)cc1 (configuration not stated) to recorded GI50 (system: KM12)
27 µM (inactive)

----------
- System: SNB-78
- PROTOCOL_SUMMARY: NCI tumour cell line growth inhibition, 48 h
Active and inactive are the calls of the source. Cut-off read from the data, not from the text of the source: active = GI50 up to about 1.1 µM and inactive = higher.
OBSERVED_PROPERTY: GI50

INSERT INTO results (molecule, result) VALUES
  ('Nc1c(S(=O)(=O)O)cc2cc(S(=O)(=O)O)ccc2c1/N=N/c1ccc(-c2ccc(/N=N/c3c(N)c(S(=O)(=O)O)cc4cc(S(=O)(=O)O)ccc34)c(S(=O)(=O)O)c2)cc1', '97.7 µM (inactive)'),
  ('O=C1c2ccccc2OP(=O)(OCC(F)(F)F)OC1(C(F)(F)F)C(F)(F)F (centres undefined)', '> 100 µM (inactive)'),
  ('CC1=C(/C(C)=N/NS(=O)(=O)c2ccc(C)cc2)Sc2ccccc2N1', '> 100 µM (inactive)'),
  ('COc1ccc2c3c([nH]c2c1[N+](=O)[O-])C(C)=NCC3', '> 100 µM (inactive)'),
  ('CCC/C(=N/NC(=O)C(N)=O)C(CC)C(=O)CCC(=O)N(Cc1ccccc1)Cc1ccccc1 (centres undefined)', '> 100 µM (inactive)');

What does the data say about its GI50? Entry: CCC(C)(C)C(=O)O[C@H]1C[C@@H](C)C=C2C=C[C@H](C)[C@H](CC[C@@H]3C[C@@H](O)CC(=O)O3)[C@H]21
> 30 µM (inactive)

What does the data say about its GI50? Entry: CC1=CC(=O)NP(=O)(Oc2ccc(Cl)cc2)N1 (centres undefined)
> 100 µM (inactive)

What does the data say about its GI50? Entry: COc1ccc(C(C#N)Cc2cc(OC)c(OC)c(OC)c2)cc1 (centres undefined)
39.8 µM (inactive)

What does the data say about its GI50? Entry: COc1cccc2c1C(=O)c1c(O)c3c(c(O)c1C2=O)CC(O)(C(=O)CO)CC3OC1CC(N)C(I)C(C)O1 (centres undefined)
25.7 µM (inactive)
